Source: patent US8106197B2

- TEST_SYSTEM: HGFR (Homo sapiens)
- Construct: purchased Upstate 14-526
- ASSAY: HGFR continuous-coupled spectrophotometric assay
- Assay type: biochemical
- EXPERIMENTAL_CONTEXT: Table 6; percent c-MET inhibition at 1 μM; read-out: % inhibition
Respond with condition met for inhibition at 1 µM values of 30% and above, condition not met for values below.

Answered cases to consult:
Nc1ncc(C(=O)N[C@@H]2CCC[C@H]2OCc2ccccc2)cc1OCc1c(Cl)cccc1Cl | condition not met
CC(=O)NCCNC(=O)c1cnc(N)c(OCc2c(Cl)cccc2Cl)c1 | condition met
CC(=O)N(C)C1CCN(C(=O)c2cnc(N)c(OCc3c(Cl)cccc3Cl)c2)C1 (centres unmarked) | condition met
Nc1ncc(C(=O)NCCc2nc3ccccc3s2)cc1OCc1c(Cl)cccc1Cl | condition not met
Nc1ncc(C(=O)N[C@@H]2CCCC[C@H]2CO)cc1OCc1c(Cl)cccc1Cl | condition not met

q: State whether the measured inhibition at 1 µM reaches 30%, counting equality as reaching it, for CCCOCCNC(=O)c1cnc(N)c(OCc2c(Cl)cccc2Cl)c1
a: condition met

q: In plain terms: is recorded inhibition at 1 µM at least 30% for Nc1ncc(C(=O)N2CCN(CCOCCO)CC2)cc1OCc1c(Cl)cccc1Cl ?
a: condition met

q: Item C[C@@H]1CCC[C@H](C)N1CCNC(=O)c1cnc(N)c(OCc2c(Cl)cccc2Cl)c1 with inhibition at 1 µM of 30% or above?
a: condition not met

---

- TEST_SYSTEM: HGFR (Homo sapiens, UniProt P08581)
- Construct: purchased Upstate 14-526
- Sequence (P08581 974-1390 limits assumed): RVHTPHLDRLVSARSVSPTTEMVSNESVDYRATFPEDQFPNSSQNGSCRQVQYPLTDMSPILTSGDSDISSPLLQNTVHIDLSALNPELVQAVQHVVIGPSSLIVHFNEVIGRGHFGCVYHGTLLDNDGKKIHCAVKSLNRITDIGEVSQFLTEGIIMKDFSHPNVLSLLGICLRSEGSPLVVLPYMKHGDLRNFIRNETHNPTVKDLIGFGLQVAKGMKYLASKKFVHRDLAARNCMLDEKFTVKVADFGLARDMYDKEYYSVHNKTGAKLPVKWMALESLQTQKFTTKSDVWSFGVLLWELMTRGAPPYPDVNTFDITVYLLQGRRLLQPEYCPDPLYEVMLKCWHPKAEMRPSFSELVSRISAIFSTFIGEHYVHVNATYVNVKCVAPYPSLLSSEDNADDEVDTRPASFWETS
- ASSAY: HGFR continuous-coupled spectrophotometric assay
- Assay type: biochemical
MEASURED_ATTRIBUTE: % inhibition

Nc1ncc(-c2ccc(C(=O)N3CCC(N4CCCC4)CC3)cc2)cc1OCc1cccc(CO)n1 | % inhibition = 15
Nc1ncc(-c2ccc(C(=O)N3CCC(N4CCCC4)CC3)cc2)cc1OCc1ccc(S(=O)(=O)Nc2ccc(F)cc2)cc1 | % inhibition = 15
COc1cc(OC)nc(COc2cc(-c3ccc(C(=O)N4CCC(N5CCCC5)CC4)cc3)cnc2N)n1 | % inhibition = 20
COc1c(C)cnc(COc2cc(-c3ccc(C(=O)N4CCC(N5CCCC5)CC4)cc3)cnc2N)c1C | % inhibition = 20

---

- TEST_SYSTEM: HGFR (Homo sapiens, UniProt P08581)
- Construct: purchased Upstate 14-526
- ASSAY: HGFR continuous-coupled spectrophotometric assay
- Assay type: biochemical
- EXPERIMENTAL_CONTEXT: Table 6; percent c-MET inhibition at 1 μM; read-out: % inhibition
MEASURED_ATTRIBUTE: inhibition at 1 µM

CN(C)CC(C)(C)CNC(=O)c1cnc(N)c(OCc2c(Cl)cccc2Cl)c1 | 38%
NC(=O)c1ccc(CC2CCN(C(=O)c3cnc(N)c(OCc4c(Cl)cccc4Cl)c3)CC2)cc1 | 12%
Cc1nc[nH]c1CN1CCC2(CC1)CC(NC(=O)c1cnc(N)c(OCc3c(Cl)cccc3Cl)c1)CO2 (centres unmarked) | 30%
CC(NC(=O)c1cnc(N)c(OCc2c(Cl)cccc2Cl)c1)c1ccc(O)cc1 (centres unmarked) | 36%

Continue with the next molecule.
q: Retrieve inhibition at 1 µM measured for CN(CC(N)=O)C(=O)c1cnc(N)c(OCc2c(Cl)cccc2Cl)c1 and print it.
a: 39%
